Measured values drawn from patent US20020183313A1 for this set.

observed-property: melting point

Some entries whose results are on file:
CC(=O)OCC1=NC(NC(=O)Nc2cccc(C)c2)C(=O)N(CC(=O)N2CC3CCC(CC3)C2)c2c(C)cccc21 (racemic) : 133 to 134.5 °C
CSc1cccc(NC(=O)NC2N=C(C)c3cccc(C)c3N(CC(=O)N3CC4CCC(CC4)C3)C2=O)c1 (racemic) : 237.2 to 238.5 °C
Cc1cccc(NC(=O)NC2N=C(C3CC3)c3cccc(C)c3N(CC(=O)N3CC4CCC(CC4)C3)C2=O)c1 (racemic) : 172 to 174.4 °C

The record that follows has no melting point shown yet.
For CC1=NC(NC(=O)Nc2cccc(C)c2)C(=O)N(Cc2ncccc2C)c2ccccc21 (racemic) [8(1)] , what is its reported melting point?
225 to 229 °C

###

System: CCK-B
Experiment: Receptor binding studies, CCK-B
Conditions: ratio IC50 CCK-A / IC50 CCK-B
Description: Receptor binding studies and gastric emptying in mice The tests were carried out in accordance with the method described at pages 571 to 572 in the following literature; Harunobu Ito, Hajime Sogabe et al., The Journal of Pharmacology and Experimental Therapeutics, 571, No.2, Vol.268 (1994).
observed-property: selectivity A/B
// no unit string in output, number only

Some entries whose results are on file:
CC1=NC(NC(=O)Nc2cccc(C)c2)C(=O)N(CC(=O)C2CCCCC2)c2c(C)cccc21 (racemic) : 0.30
Cc1cccc(NC(=O)NC2N=C(C3CC3)c3cccc(C)c3N(CC(=O)C3CCCCC3)C2=O)c1 (racemic) : 1.82
CCC1=N[C@@H](NC(=O)Nc2cccc(C)c2)C(=O)N(CC(=O)C2CCCCC2)c2c(C)cccc21 : 0.30

The record that follows has no selectivity A/B shown yet.
For CCC1=NC(NC(=O)Nc2cccc(C)c2)C(=O)N(CC(=O)C2CCCCC2)c2c(C)cccc21 (racemic) , what is its reported selectivity A/B?
0.56

###

Quick list: melting point per entry.

Cc1cccc(NC(=O)NC2N=C(C=CC(=O)O)c3cccc(C)c3N(CC(=O)N3CCCCCCC3)C2=O)c1 (racemic) : 129.3 to 134.1 °C
CCC1=NC(NC(=O)Nc2cccc(C)c2)C(=O)N(CC(=O)N2CCCCCCC2)c2c(C)cccc21 (racemic) : 189 to 189.5 °C
CCC1=NC(NC(=O)Nc2cccc(C)c2)C(=O)N(CC(=O)N2CC3CCC(CC3)C2)c2c(C)cccc21 (racemic) : 130.1 to 133 °C
O=C(Nc1cccc(-c2nnn[nH]2)c1)NC1N=C(c2ccccc2F)c2cccc(Cl)c2N(CC(=O)N2CC3CCC(CC3)C2)C1=O (racemic) : 172 to 180.5 °C

For Cc1ccccc1C(=O)CN1C(=O)C(NC(=O)c2cc3ccccc3[nH]2)N=C(C2CCCCC2)c2cccc(C)c21 (racemic) , what is its reported melting point?
126.7 to 145.2 °C

For CC(C)c1cccc2c1N(CC(=O)N1CC3CCC(CC3)C1)C(=O)C(NC(=O)Nc1cccc(-c3nnn[nH]3)c1)N=C2c1ccccc1F (racemic) , what is its reported melting point?
212.2 to 222.1 °C

For CC(=O)N(C(C)=O)c1ccccc1C(=O)CN1C(=O)C(NC(=O)Nc2cccc(-c3nnn[nH]3)c2)N=C(c2ccccc2F)c2cccc(C)c21 (racemic) , what is its reported melting point?
192 to 216.6 °C (dec.)

For Cc1cccc(NC(=O)NC2N=C(C(C)C)c3cccc(C)c3N(CC(=O)N3CCCCCCC3)C2=O)c1 (racemic) , what is its reported melting point?
131.7 to 132.8 °C

For Cc1ccccc1C(=O)CN1C(=O)C(NC(=O)Nc2cccc(-c3nnn[nH]3)c2)N=C(C2CCCCC2)c2cccc(C)c21 (racemic) , what is its reported melting point?
165 to 176.6 °C

For CC1=NC(NC(=O)Nc2cccc(C)c2)C(=O)N(CC(=O)N2CCN(CCO)CC2)c2c(C)cccc21 (racemic) , what is its reported melting point?
221.7 to 224.2 °C

For CCC(=O)CN1C(=O)C(NC(=O)Nc2cccc(C)c2)N=C(C)c2cccc(C)c21 (racemic) , what is its reported melting point?
125.1 to 127.5 °C
